Test system: IGROV-1
Test: NCI tumour cell line growth inhibition, 48 h
Calls of active or inactive are those of the source. Cut-off read from the data, not from the text of the source: active = GI50 up to about 1.1 µM and inactive = higher.
endpointName: GI50

// CC(C)(C)c1cc(C(C)(C)C)c(P=C(Cl)Cl)c(C(C)(C)C)c1 (stereo unspecified) : GI50 value = > 100 µM (inactive)

// Cc1ccc(CC2(OCCN(C)C)CCC(C(C)(C)C)CC2)cc1 (stereo unspecified) : GI50 value = 6.5 µM (inactive)

// COc1cc2c(cc1OC)C1C[C@]3(CCN1CC2)C(=O)N(c1ccccc1)C(=O)N3C(C)=O (stereo partly specified) : GI50 value = > 200 µM (inactive)

// O=C(O)C(F)(F)C(F)(F)C(F)(F)C(F)(F)C(=O)O : GI50 value = > 100 µM (inactive)

// COc1cc(OC)c(C/C=C/c2ccccc2)cc1O : GI50 value = 16.3 µM (inactive)

// Cc1cccc(C)c1NC(=O)C(=O)C(C(=O)c1ccccc1-c1ccccc1)C1OC(=O)c2ccccc21 (stereo unspecified) : GI50 value = 25.6 µM (inactive)

// O=C(NCCCN1CCN(CCCNC(=O)Nc2cc(Cl)ccc2Cl)CC1)Nc1cc(Cl)ccc1Cl : GI50 value = > 100 µM (inactive)

// O=C(O)c1ccc2nc(-c3ccccn3)c(-c3ccccn3)nc2c1 : GI50 value = > 100 µM (inactive)

// CCCNC1=C2CC(C)CC(OC)[C@@H](O)[C@H](C)/C=C(\C)C(OC(N)=O)C(OC)/C=C\C=C(/C)C(=O)NC(=CC1=O)C2=O (stereo partly specified) : GI50 value = 0.498 µM (active)

// CCN(CC)C(=S)SC(=S)N(CC)CC : GI50 value = 30.5 µM (inactive)

// CCC(=O)NC(Nc1ccccc1F)(C(F)(F)F)C(F)(F)F : GI50 value = > 100 µM (inactive)
